B1: HESX1 (parent)
chain: ENKPSTCSFSIERILGLDQKKDCV

Variants of: B1
measurementDescription: protein stability index of a GFP-peptide fusion (GPS, HEK-293T) (PSI 1-6); higher = more stable;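 also: lentivirally expressed fusions sorted by FACS into six bins by GFP to DsRed ratio, PSI derived from sequencing read proportions per bin multiplied by bin number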
conditionSet: c terminus: a fixed tail appended
Rule: 1 for protein stability index not less than 3, -1 for anything less.

Please review the entries below; each comes with its answer.
>>> category("E12H")
-1
>>> category("C7W")
-1

Say whether K20F shows protein stability index of 3 or more.
-1

Reported protein stability index at or above 3? C23A
1

Check the entry R13S : does protein stability index equal or exceed 3?
1
